# Assayed System: HIV-1 YU-2 gp120 (HIV-1 (YU-2), UniProt P35961)
# Protocol Description: SPR
Catalogue of binders with associated log10 of koff
Attribute Measured: log10 of koff (log10 of the value in s⁻¹)

Binder	log10 of koff
Fab m18 D28A (LCDR1) (Fab, V domains shown) VH: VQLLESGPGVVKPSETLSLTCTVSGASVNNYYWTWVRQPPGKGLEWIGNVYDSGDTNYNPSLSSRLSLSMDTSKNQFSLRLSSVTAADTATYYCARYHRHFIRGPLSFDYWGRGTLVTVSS VL: LQMTQSPSFLSASVGDRVSITCRASQAIQKFLAWYQLTPGDAPKLLMYSASTLQSGVPSRFSGSGSGTEFTLTISGLQPEDFATYYCQHLKRYPYTFGQGTKLEIS	-4.72
Fab m18 S52A (LCDR2) (Fab, V domains shown) VH: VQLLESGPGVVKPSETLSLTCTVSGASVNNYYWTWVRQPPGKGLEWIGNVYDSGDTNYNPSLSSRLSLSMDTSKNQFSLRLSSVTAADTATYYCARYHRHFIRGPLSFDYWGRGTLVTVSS VL: LQMTQSPSFLSASVGDRVSITCRASQDIQKFLAWYQLTPGDAPKLLMYSAATLQSGVPSRFSGSGSGTEFTLTISGLQPEDFATYYCQHLKRYPYTFGQGTKLEIS	-4.09
Fab m18 N31A (HCDR1) (Fab, V domains shown) VH: VQLLESGPGVVKPSETLSLTCTVSGASVNAYYWTWVRQPPGKGLEWIGNVYDSGDTNYNPSLSSRLSLSMDTSKNQFSLRLSSVTAADTATYYCARYHRHFIRGPLSFDYWGRGTLVTVSS VL: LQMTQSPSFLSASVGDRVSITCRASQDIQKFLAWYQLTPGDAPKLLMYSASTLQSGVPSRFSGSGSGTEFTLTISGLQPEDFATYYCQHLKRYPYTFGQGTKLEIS	-2.89
Fab m18 Q27A (LCDR1) (Fab, V domains shown) VH: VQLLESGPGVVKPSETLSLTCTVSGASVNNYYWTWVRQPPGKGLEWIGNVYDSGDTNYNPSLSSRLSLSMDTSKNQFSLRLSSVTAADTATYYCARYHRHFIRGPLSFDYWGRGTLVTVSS VL: LQMTQSPSFLSASVGDRVSITCRASADIQKFLAWYQLTPGDAPKLLMYSASTLQSGVPSRFSGSGSGTEFTLTISGLQPEDFATYYCQHLKRYPYTFGQGTKLEIS	-3.31
Fab m18 R24A (LCDR1) (Fab, V domains shown) VH: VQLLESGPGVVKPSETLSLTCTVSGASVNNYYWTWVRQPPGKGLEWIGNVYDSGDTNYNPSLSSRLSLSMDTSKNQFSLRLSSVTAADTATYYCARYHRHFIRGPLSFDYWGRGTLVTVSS VL: LQMTQSPSFLSASVGDRVSITCAASQDIQKFLAWYQLTPGDAPKLLMYSASTLQSGVPSRFSGSGSGTEFTLTISGLQPEDFATYYCQHLKRYPYTFGQGTKLEIS	-3.41
Fab m18 Q30A (LCDR1) (Fab, V domains shown) VH: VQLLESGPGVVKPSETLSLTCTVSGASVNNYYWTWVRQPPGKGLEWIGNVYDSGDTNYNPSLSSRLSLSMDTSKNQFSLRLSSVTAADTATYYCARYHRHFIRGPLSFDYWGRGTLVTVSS VL: LQMTQSPSFLSASVGDRVSITCRASQDIAKFLAWYQLTPGDAPKLLMYSASTLQSGVPSRFSGSGSGTEFTLTISGLQPEDFATYYCQHLKRYPYTFGQGTKLEIS	-3.92
Fab m18 P61A (HCDR2) (Fab, V domains shown) VH: VQLLESGPGVVKPSETLSLTCTVSGASVNNYYWTWVRQPPGKGLEWIGNVYDSGDTNYNASLSSRLSLSMDTSKNQFSLRLSSVTAADTATYYCARYHRHFIRGPLSFDYWGRGTLVTVSS VL: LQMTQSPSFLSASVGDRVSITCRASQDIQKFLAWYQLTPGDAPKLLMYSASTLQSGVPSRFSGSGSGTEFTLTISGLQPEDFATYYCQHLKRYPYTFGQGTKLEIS	-3.20
Fab m18 S54A (HCDR2) (Fab, V domains shown) VH: VQLLESGPGVVKPSETLSLTCTVSGASVNNYYWTWVRQPPGKGLEWIGNVYDAGDTNYNPSLSSRLSLSMDTSKNQFSLRLSSVTAADTATYYCARYHRHFIRGPLSFDYWGRGTLVTVSS VL: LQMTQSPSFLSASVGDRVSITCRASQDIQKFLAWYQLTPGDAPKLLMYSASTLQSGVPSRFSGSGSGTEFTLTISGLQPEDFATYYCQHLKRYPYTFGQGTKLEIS	-2.66
Fab m18 Y32A (HCDR1) (Fab, V domains shown) VH: VQLLESGPGVVKPSETLSLTCTVSGASVNNAYWTWVRQPPGKGLEWIGNVYDSGDTNYNPSLSSRLSLSMDTSKNQFSLRLSSVTAADTATYYCARYHRHFIRGPLSFDYWGRGTLVTVSS VL: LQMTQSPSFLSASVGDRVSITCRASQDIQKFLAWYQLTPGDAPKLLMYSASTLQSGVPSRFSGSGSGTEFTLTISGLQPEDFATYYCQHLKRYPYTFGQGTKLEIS	-4.21
Fab m18 T53A (LCDR2) (Fab, V domains shown) VH: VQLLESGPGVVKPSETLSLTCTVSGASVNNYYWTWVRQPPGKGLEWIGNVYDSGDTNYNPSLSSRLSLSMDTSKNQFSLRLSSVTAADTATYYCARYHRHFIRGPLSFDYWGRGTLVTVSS VL: LQMTQSPSFLSASVGDRVSITCRASQDIQKFLAWYQLTPGDAPKLLMYSASALQSGVPSRFSGSGSGTEFTLTISGLQPEDFATYYCQHLKRYPYTFGQGTKLEIS	-3.15
